- Assay notes: galactose survival enhancers in mitochondrial complex I cybrids – cell-based, galactose medium, ATP luminescence, primary screen (AID 1645843);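 further: positive z means more ATP and so rescue of galactose-driven cybrid death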
- Applied conditions: complex I mutant cybrid cells, 72 h, stronger effect = higher value
Value kind: z-score
One number for each entry.

>>> print(df.to_string())
                                   molecule  reported_measurement
0  Cn1ccnc1-c1ccccc1C(=O)N1CCN(Cc2cccc(Cl)c2)CC1                 0.665

Could you report z-score for every entry in the following list?
1. O=C(OC1CC2CC3CC(C1)N2CC3=O)c1c[nH]c2ccccc12 (stereo unspecified)
2. NC(=O)NCc1cn(CC2CCN(C(=O)CC3CCCCCC3)CC2)nn1

Ans.
1. 0.88
2. -0.605

Could you report z-score for every entry in the following list?
1. COc1ccccc1CNC(=O)Nc1nnc(C)s1
2. CCCCCCCCCCCCCCSCC(=O)O
3. CC(C)Cn1nc(C(=O)N2CCOCC2)c2c1CCC(NCc1ccc(F)cc1)C2 (stereo unspecified)

Ans.
[4.88, -0.24, 0.625]

----------
- Assay notes: MELAS cybrid and Rieske KO viability enhancers – cell-based, MELAS cybrids, Rieske KO mouse fibroblasts, CellTiter-Glo, primary screen (AID 1508586);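 further: z relative to plate mean and SD of compound and empty wells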
- Applied conditions: MELAS cybrid survival, low glucose, CellTiter-Glo 48 h; stronger effect = higher value
Cut-off -0.2 on z-score, inclusive. At or above means Yes; below means No.

// below: answered compounds
>>> print(df.to_string())
                                   compound  answer_label
0                        COc1ccc(C(=O)O)cc1            No
1  Cc1ccnn1CCC(=O)N1CC(=O)N(CC(C)C)CC(OCc2ccccn2)C1 (stereo unspecified)           Yes
2  C[C@]12CC[C@H]3c4ccc(OC(=O)c5ccccc5)cc4CC[C@H]3[C@@H]1CCC2O (stereo partly specified)           Yes
3  COCC1CCCN(Cc2cccc(-c3nc(-c4cccnc4)cc(=O)[nH]3)c2)C1 (stereo unspecified)            No
4  Nc1ncn(C2CC(O)C(CO)O2)c(=O)n1 (stereo unspecified)            No
5  CCN(CC)C(=O)c1c(NC(=O)c2cccs2)sc2c1CCCC2           Yes

Qu. Determine whether measured z-score meets or exceeds -0.2 for "COc1cc(F)ccc1C(=O)N1CCc2[nH]nc(Cc3ccccc3)c2C1"
Ans. Yes

Qu. Determine whether measured z-score meets or exceeds -0.2 for "Cc1cc(C)c(C=C2C(=O)Nc3ccccc32)[nH]1"
Ans. Yes

Qu. Determine whether measured z-score meets or exceeds -0.2 for "NCc1ccc(-c2cccs2)cc1"
Ans. No

Qu. Determine whether measured z-score meets or exceeds -0.2 for CC1(C)SC2C(NC(=O)C(NC(=O)N3CCNC3=O)c3ccccc3)C(=O)N2C1C(=O)O (stereo unspecified)
Ans. Yes

Qu. Determine whether measured z-score meets or exceeds -0.2 for "O=C1N[C@@H](CSCc2ccccc2)C(=O)N2CCN(C(=O)Oc3ccccc3)C[C@H]12"
Ans. Yes

----------
Provide the reported inhibition of each item.
- Assay notes: growth inhibition, single agents and combos, LFS_MB_1R, cell-based, cisplatin or BGB combos, synergistic combos for chromothripsis tumors (AID 1671452);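 further: cells exposed for 96 hours before readout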
- Applied conditions: LFS_MB_1R medulloblastoma cells, measured here: combination with cisplatin, at 5 µM, stronger effect = higher value
One number for each entry, in %.

>>> df
                                   compound  reported_measurement
0  C=CC1=C(C)C2=CC3=NC(=C(CC(=O)O)C4=NC(=C(C)C4=C(O)O)C=c4[nH]c(c(C)c4CC)=CC1=N2)C(CCC(=O)O)C3C (stereo not drawn)                 -2.96
1  N#Cc1ccc(OC2CCC(NC(=O)CCSc3nc4ccccc4c(=O)[nH]3)CC2)cc1 (stereo not drawn)                 -48.1

Could you report inhibition for every entry in the following list?
1. C=C(C)C1CCC2(C(=O)O)CCC3(C)C(CCC4C5(C)CCC(O)C(C)(C)C5CCC43C)C12 (stereo not drawn)
2. CC(C=CC(=O)NO)=CC(C)C(=O)c1ccc(N(C)C)cc1 (stereo not drawn)
3. NC(=O)c1ncn(C2OC(CO)C(O)C2O)c1O (stereo not drawn)
4. CON=C1CN(c2nc3c(cc2F)c(=O)c(C(=O)O)cn3C2CC2)CC1CN (stereo not drawn)
5. O=c1[nH]c(=S)[nH]c2nc(-c3ccccc3)c(-c3ccccc3)nc12
6. CC(C)(C#N)c1ccc(N2C(=O)OCc3cnc4ccc(-c5cnc6ccccc6c5)cc4c32)cc1

Ans.
1. -12.9
2. 98.9
3. 1.36
4. -30.4
5. -28.2
6. 24
